tested on: NCI-H1975; experiment: relative viability (nuclei count vs DMSO), 5 days (fraction); higher = more cells survive; conditions: first compound 0.5 µM
Overview of recorded relative viability for various compounds
Reply with the value as a number alone.

Below: 5 compounds and their reported relative viability.
COc1cc2nccc(Oc3ccc(NC(=O)Nc4cc(C)on4)c(Cl)c3)c2cc1OC [Tivozanib] + CS(=O)(=O)N1CCN(Cc2cc3nc(-c4cccc5[nH]ncc45)nc(N4CCOCC4)c3s2)CC1 [Pictilisib] (partner 1 µM) :: 0.275
Nc1ccn([C@@H]2O[C@H](CO)[C@@H](O)[C@@H]2O)c(=O)n1 [Cytarabine] + Nc1ncn([C@H]2C[C@H](O)[C@@H](CO)O2)c(=O)n1 [Decitabine] (partner 2 µM) :: 0.257
COc1cc2nccc(Oc3ccc(NC(=O)Nc4cc(C)on4)c(Cl)c3)c2cc1OC [Tivozanib] + CC1(C)CCC(c2ccc(Cl)cc2)=C(CN2CCN(c3ccc(C(=O)NS(=O)(=O)c4ccc(N[C@H](CCN5CCOCC5)CSc5ccccc5)c(S(=O)(=O)C(F)(F)F)c4)cc3)CC2)C1 [Navitoclax] (partner 0.5 µM) :: 0.884
Nc1ccn([C@@H]2O[C@H](CO)[C@@H](O)[C@@H]2O)c(=O)n1 [Cytarabine] + Cc1nc(NC(=O)N2CCC[C@H]2C(N)=O)sc1-c1ccnc(C(C)(C)C(F)(F)F)c1 [Alpelisib] (partner 2 µM) :: 0.313
COc1cc2nccc(Oc3ccc(NC(=O)Nc4cc(C)on4)c(Cl)c3)c2cc1OC [Tivozanib] + Nc1ncn([C@H]2C[C@H](O)[C@@H](CO)O2)c(=O)n1 [Decitabine] (partner 2 µM) :: 0.405

Tell me reported relative viability for Nc1ccn([C@@H]2O[C@H](CO)[C@@H](O)[C@@H]2O)c(=O)n1 [Cytarabine] + C[C@@H](Oc1cc(-c2cnn(C3CCNCC3)c2)cnc1N)c1c(Cl)ccc(F)c1Cl [Crizotinib] (partner 1 µM) , tested with NCI-H1975. 0.373

What is its relative viability for NCI-H1975? Entry: Nc1ccn([C@@H]2O[C@H](CO)[C@@H](O)[C@@H]2O)c(=O)n1 [Cytarabine] + O=C(c1cc(Cc2n[nH]c(=O)c3ccccc23)ccc1F)N1CCN(C(=O)C2CC2)CC1 [Olaparib] (partner 8 µM) 0.253

Hello, I am looking for reported relative viability with NCI-H1975 for Nc1ccn([C@@H]2O[C@H](CO)[C@@H](O)[C@@H]2O)c(=O)n1 [Cytarabine] + COc1cc2c(Oc3ccc(NC(=O)C4(C(=O)Nc5ccc(F)cc5)CC4)cc3F)ccnc2cc1OCCCN1CCOCC1 [Foretinib] (partner 0.25 µM) . Could you help? 0.314

Identify the measured relative viability of Nc1ccn([C@@H]2O[C@H](CO)[C@@H](O)[C@@H]2O)c(=O)n1 [Cytarabine] + CC1(C)CCC(c2ccc(Cl)cc2)=C(CN2CCN(c3ccc(C(=O)NS(=O)(=O)c4ccc(N[C@H](CCN5CCOCC5)CSc5ccccc5)c(S(=O)(=O)C(F)(F)F)c4)cc3)CC2)C1 [Navitoclax] (partner 0.5 µM) for NCI-H1975. 0.359

For the record Nc1ccn([C@@H]2O[C@H](CO)[C@@H](O)[C@@H]2O)c(=O)n1 [Cytarabine] + NC(=O)Nc1cc(-c2cccc(F)c2)sc1C(=O)N[C@H]1CCCNC1 [AZD7762] (partner 0.2 µM) , what value of relative viability is listed for NCI-H1975? 0.234

// fetch NCI-H1975 relative viability for Nc1ccn([C@@H]2O[C@H](CO)[C@@H](O)[C@@H]2O)c(=O)n1 [Cytarabine] + CS(=O)(=O)CCNCc1ccc(-c2ccc3ncnc(Nc4ccc(OCc5cccc(F)c5)c(Cl)c4)c3c2)o1 [Lapatinib] (partner 2 µM) 0.372
